- System: 565726-208-R1-J5-PDC complex spheroids, growth inhibition;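 further: spheroids exposed to compounds for seven days before readout; 100% = DMSO vehicle control viability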
- testName: Anticancer human tumor 565726-208-R1-J5-PDC patient-derived pancreatic adenocarcinoma cell line growth inhibition [RAS]
- condition: second compound 0.3 µM; first compound 3.16 µM; stronger effect = lower value
quantity: viability, T/C (%)

[[record]]
compound = "NC1c2ccccc2OC12CCN(c1cnc3c(N4CCCc5ncccc54)n[nH]c3n1)CC2 (centres undefined) + CCn1c(-c2cccnc2C(C)OC)c2c3cc(ccc31)N1CCOC(CC(NC(=O)C(C(C)C)N(C)C(=O)C3(F)CCN(C(=O)C#CC(C)(C)N(C)C)CC3)C(=O)N3CCCC(N3)C(=O)OCC(C)(C)C2)C1"
unitofmeasurement = "%"
endpointvalue = 54.2

[[record]]
compound = "C[C@@H](NC(=O)c1ncnc(N)c1Cl)c1ncc(C(=O)Nc2cc(C(F)(F)F)c(Cl)cn2)s1 + CCn1c(-c2cccnc2C(C)OC)c2c3cc(ccc31)N1CCOC(CC(NC(=O)C(C(C)C)N(C)C(=O)C3(F)CCN(C(=O)C#CC(C)(C)N(C)C)CC3)C(=O)N3CCCC(N3)C(=O)OCC(C)(C)C2)C1"
unitofmeasurement = "%"
endpointvalue = 90

[[record]]
compound = "CC(C)NCC(C(=O)N1CCN(c2ncnc3c2C(C)CC3O)CC1)c1ccc(Cl)cc1 (centres undefined) + CCn1c(-c2cc(N3CCN(C)CC3)cnc2C(C)OC)c2c3cc(ccc31)-c1csc(n1)CC(NC(=O)C1CC1C)C(=O)N1CCCC(N1)C(=O)OCC(C)(C)C2"
unitofmeasurement = "%"
endpointvalue = 19.7

[[record]]
compound = "CC(Nc1ccc2c(c1)OCCn1cc(N3C(=O)OCC3C(F)F)nc1-2)C(N)=O (centres undefined) + CCn1c(-c2cc(N3CCN(C)CC3)cnc2C(C)OC)c2c3cc(ccc31)-c1csc(n1)CC(NC(=O)C1CC1C)C(=O)N1CCCC(N1)C(=O)OCC(C)(C)C2"
unitofmeasurement = "%"
endpointvalue = 15.6

